Where do the numbers come from? From PubChem BioAssay AID1996.

- condition_details: buffer; pH 7.4; 200.0 µM
assay_endpoint: solubility kinetic (µg/mL)
Answer format: numeric, µg/mL implied, no suffix.

So what's the measured solubility kinetic for this one? O=C1CC(/C=C/c2cccnc2)=Nc2ccccc2N1 24.4

So what's the measured solubility kinetic for this one? COc1ccc(CNC(=O)c2sc(=S)n(-c3ccccc3)c2N)cc1 0.7

So what's the measured solubility kinetic for this one? CC(C)(C)c1ccc(-c2nc(N)nc(N)n2)cc1 0.9

So what's the measured solubility kinetic for this one? CCOc1cc(/C=C2\SC(N)=NC2=O)ccc1O 22.5

So what's the measured solubility kinetic for this one? COc1ccc(NC(=O)COC(=O)C2CCN(C(=O)c3ccc(Cl)cc3)CC2)c([N+](=O)[O-])c1 22.4

So what's the measured solubility kinetic for this one? CN(Cc1ccccc1)S(=O)(=O)c1ccc2c(c1)n(C)c(=O)c(=O)n2C 1.4

So what's the measured solubility kinetic for this one? CCc1nc(Nc2ccc(F)cc2)c2oc3ccccc3c2n1.Cl 0.8

So what's the measured solubility kinetic for this one? CC1CCCCN1Cc1c[nH]c2ccccc12 (stereo unspecified) 28.8

So what's the measured solubility kinetic for this one? C[N+](C)(C)CCOP(=O)([O-])OP(=O)([O-])OC[C@H]1O[C@@H](n2ccc(N)nc2=O)[C@H](O)[C@@H]1O.[Na+] 3.7

So what's the measured solubility kinetic for this one? Nc1nc(-c2cc3c(cc2Cl)OCCO3)cs1 25.9

So what's the measured solubility kinetic for this one? CCn1c(SC)nc2cc(S(=O)(=O)N3CCCCC3)ccc21 43.6

So what's the measured solubility kinetic for this one? Cc1ccc(C(=O)NCC(=O)OCC(=O)NC2CCCCCCC2)cc1 53.2
